Property: protein stability index; scope: individual sequences
# PROTOCOL_TEXT: protein stability index of a GFP-peptide fusion (GPS, HEK-293T) (PSI 1-6); higher = more stable;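 further: 24-mer peptide tiles fused after GFP, lentivirally expressed, FACS-sorted into six equal bins by GFP/DsRed ratio, decoded by Illumina sequencing, PSI is the read-weighted mean bin number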
# CONDITION_SET: treatment: MLN4924 1 uM, 8 h; c terminus: a fixed tail appended
Number only, please.

Recorded results for 5 sequences are shown here.
{"RESIDUE_SEQUENCE": "HFPYDLHLRSQSLTMQDELNAVFH [NEUROD6]", "READING": 2.92}
{"RESIDUE_SEQUENCE": "PADCKRKEEAGAPGGGAGMAAGFP [CEBPB]", "READING": 5.29}
{"RESIDUE_SEQUENCE": "LSYRNGYAIVRRPTVGIGGDRLQF [EFHC1]", "READING": 2.35}
{"RESIDUE_SEQUENCE": "NHLPPQTKRSSRNPVFQDSWDTES [FAM104A]", "READING": 4.59}
{"RESIDUE_SEQUENCE": "LRMMVENIMNKEAFMNQEITKAFH [RHOBTB1]", "READING": 2.2}

QUERY: protein stability index for QHNLRDSLENTLTESEAHYSSQLS [KRT34] ?
RESULT: 4.99

QUERY: Could you do the same for DAIGEGKVTLRIRNVRFSDEGGFT [MOG] , please?
RESULT: 2.84

---

# PROTOCOL_TEXT: protein stability index of a GFP-peptide fusion (GPS, HEK-293T) (PSI 1-6); higher = more stable
# CONDITION_SET: treatment: MLN4924 1 uM, 8 h; c terminus: a fixed tail appended
Please note: Satisfied applies when protein stability index is 5 or greater, and Not satisfied applies otherwise.

{"RESIDUE_SEQUENCE": "MGSQHSAAARPSSCRRKQEDDRDG [TMEM106C]", "CATEGORY_LABEL": "Satisfied"}
{"RESIDUE_SEQUENCE": "SVDLIKTYKHINEVYYAKKKRRAQ [DYRK1B]", "CATEGORY_LABEL": "Not satisfied"}
{"RESIDUE_SEQUENCE": "YEKTPFDQLAFIEELFSLMVVNRL [EID1]", "CATEGORY_LABEL": "Not satisfied"}
{"RESIDUE_SEQUENCE": "EAERKIIEENITSAAPSNDQDGEY [SRPK2]", "CATEGORY_LABEL": "Satisfied"}
{"RESIDUE_SEQUENCE": "QPVKTAGEITQHNVTELLRDVAAW [DNAAF3]", "CATEGORY_LABEL": "Not satisfied"}
{"RESIDUE_SEQUENCE": "QSQLSMKAGLENSLAETECRYATQ [KRT15]", "CATEGORY_LABEL": "Not satisfied"}

QUERY: Does MFLEISSYYDPGRLICDFPFDGLL [VPS39] have a reported protein stability index of at least 5?
RESULT: Not satisfied

---

# PROTOCOL_TEXT: protein stability index of a GFP-peptide fusion (GPS, HEK-293T) (PSI 1-6); higher = more stable
# CONDITION_SET: treatment: DMSO; c terminus: a fixed tail appended
Classification field: 1 = protein stability index at or over 3; -1 = protein stability index under 3.

QUERY: Kindly determine if protein stability index recorded for IRKKLKDSGDVSNVIEKVKCILKT [RHOBTB3] is above or exactly 3.
RESULT: 1

QUERY: Moving on to IDASQLPHRVLETRGHAISILFGF [SMIM2]
RESULT: -1

QUERY: Proceed to QYVITHAKVNILLVENDQQLQKIL [ACSBG2]
RESULT: -1

QUERY: Next record, please: AMEPDRKAAVSHWQQQSYLDSGIH [CTNNB1]
RESULT: 1

QUERY: What do you get for INVNDLSFVTGSHVGELIIWDALD [WDR41] ?
RESULT: -1

QUERY: # iterate: FPHPLWLRDTYKLWVPQPPPRTIK [PWWP2B]
RESULT: -1

QUERY: Repeat with FSTILHLLLGSPHPAATALHAELC [LPCAT4]
RESULT: 1

QUERY: What about this sequence? PESRSLPSSPLRLGSYKAQKTSRS [PPEF2]
RESULT: 1

QUERY: Consider next the sequence TSYRLQGLKPNSLYYFRLAARSPQ [PTPRD] in the same way.
RESULT: -1

---

# PROTOCOL_TEXT: protein stability index of a GFP-peptide fusion (GPS, HEK-293T) (PSI 1-6); higher = more stable
# CONDITION_SET: treatment: MLN4924 1 uM, 8 h; c terminus: a fixed tail appended
Listing of entries alongside the reported protein stability index.
The answer should be written as a number, with no unit following it.

{"RESIDUE_SEQUENCE": "SVILRRYFLELTQSFIIPLERYVA [DENND6A]", "protein stability index": 2.88}
{"RESIDUE_SEQUENCE": "PPQGGCGGGGCDRYEPLPPSLPAA [KCNA3]", "protein stability index": 4.7}
{"RESIDUE_SEQUENCE": "AEPGFEPADCKRKEEAGAPGGGAG [CEBPB]", "protein stability index": 5.56}
{"RESIDUE_SEQUENCE": "TPKDKRVSNTPLRTVDGSPMMKAA [PALM]", "protein stability index": 4.39}

QUERY: Which protein stability index reading was recorded for the sequence DTILKYLKDHFSHLLGIPHSVLQI [IQUB] ?
RESULT: 2.63

QUERY: What do you have for LDPAYTTLEFENVQVLTMGNDTSP [HNF4A] ?
RESULT: 5.46

QUERY: // same read-out, input: KEGEGEVGGEAVEVEEVENVQTEF [TRIM55]
RESULT: 5.59

QUERY: Queued: VSRGGHGQQDLFRVLKAYTLYRPE [TBC1D10A]
RESULT: 2.12

QUERY: How about QMREAFATAFSKLKPESSQQPGQD [ZBED1] ?
RESULT: 4.62

QUERY: // repeat for NHEALRQAKQEMNESRRQIQSLTC [PRPH] and report
RESULT: 4.38

QUERY: Then what about the sequence LLFVRGAGNCPECGTPLRKSNFRV [MNAT1] ?
RESULT: 2.6

QUERY: Consider next the sequence IWVPIKIGALTYFAQADALKGTLV [ACSBG2] in the same way.
RESULT: 3.08

QUERY: Same again, this time with VEVDAPKSQDLAKIMADIRAQYDE [KRT18]
RESULT: 4.71

QUERY: Continue with WQRGLNTPEDSDPDHFDTAILFTR [ADAMTS4]
RESULT: 3.5

---

# PROTOCOL_TEXT: protein stability index of a GFP-peptide fusion (GPS, HEK-293T) (PSI 1-6); higher = more stable
# CONDITION_SET: treatment: DMSO; c terminus: a fixed tail appended
protein stability index below 3 gives Not fulfilled; protein stability index at or above it gives Fulfilled.

Example entries and their recorded answers appear below.
{"RESIDUE_SEQUENCE": "SREITTLANNQCMATESVDHELGR [EHMT1]", "CATEGORY_LABEL": "Fulfilled"}
{"RESIDUE_SEQUENCE": "QSILLNTRLQDCYVDSPALTNIWM [C22orf31]", "CATEGORY_LABEL": "Not fulfilled"}
{"RESIDUE_SEQUENCE": "EKRNAGNAVRSAMKSEEQKIKDAR [KMT5A]", "CATEGORY_LABEL": "Fulfilled"}
{"RESIDUE_SEQUENCE": "SADMDESDEDDEEERRRRVFDVPI [FBXO3]", "CATEGORY_LABEL": "Fulfilled"}
{"RESIDUE_SEQUENCE": "MGQCRSANAEDAQEFSDVERAIET [S100A14]", "CATEGORY_LABEL": "Fulfilled"}
{"RESIDUE_SEQUENCE": "TMLATRNFSAAKSLLNKKADGVKP [CAMK2B]", "CATEGORY_LABEL": "Fulfilled"}
{"RESIDUE_SEQUENCE": "MWDSKKIGLRQHHCRKCGKAVCGK [WDFY2]", "CATEGORY_LABEL": "Fulfilled"}
{"RESIDUE_SEQUENCE": "KSTSKYIYQTLFLNGENSDIKICA [GMCL1]", "CATEGORY_LABEL": "Not fulfilled"}

QUERY: I'd appreciate it if you could say whether FNDPFFIVETVCIVWFSFEFVVRC [KCNA4] has protein stability index at least equal to 3.
RESULT: Fulfilled

QUERY: Queued: LCLGGLACLIVMFLPEKKDTGVFA [SLC22A15]
RESULT: Fulfilled

QUERY: Would you kindly repeat that for NISELKRTFLETSTDTAVTNEWEK [EPB41L3] ?
RESULT: Fulfilled

QUERY: Quick one: LFFIDGSTPSDNIVRRFLNICENT [CDC14A]
RESULT: Not fulfilled

QUERY: Likewise for AYFAGNQKQLEQTLQQFNIKLRPP [ARFIP2] ?
RESULT: Not fulfilled

QUERY: Now this one: YYNVVLLRYQFSRPGPQSVPLQLS [FCHO1]
RESULT: Fulfilled

QUERY: FKRRRVRRRRMETIVFLDKEVFAS [PCMTD2] ?
RESULT: Not fulfilled

QUERY: # iterate: DVRMGGSFRGAFSNSEKAKNIFRI [NET1]
RESULT: Not fulfilled

QUERY: Also QSYPLCIYLINQKWFGRKRTLSAF [SLC22A15] ?
RESULT: Not fulfilled

QUERY: Further, for LMCFDPDTDKWIQKAPMTTVRGLH [KLHL13] ?
RESULT: Not fulfilled

QUERY: Also, PIDVVEKYDPKTQEWSFLPSITRK [KLHL12] please.
RESULT: Fulfilled

QUERY: Queued: NSIKNEKLEWAIDEDELRKSLSEL [PSD2]
RESULT: Fulfilled
